# tested-target: Ribosomal protein S6 kinase beta-1 (Homo sapiens) (UniProt P23443);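 also: values are mean inhibition of p70S6K1, measured as part of the GSK PKIS panel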
# Sequence (P23443 whole entry, looked up): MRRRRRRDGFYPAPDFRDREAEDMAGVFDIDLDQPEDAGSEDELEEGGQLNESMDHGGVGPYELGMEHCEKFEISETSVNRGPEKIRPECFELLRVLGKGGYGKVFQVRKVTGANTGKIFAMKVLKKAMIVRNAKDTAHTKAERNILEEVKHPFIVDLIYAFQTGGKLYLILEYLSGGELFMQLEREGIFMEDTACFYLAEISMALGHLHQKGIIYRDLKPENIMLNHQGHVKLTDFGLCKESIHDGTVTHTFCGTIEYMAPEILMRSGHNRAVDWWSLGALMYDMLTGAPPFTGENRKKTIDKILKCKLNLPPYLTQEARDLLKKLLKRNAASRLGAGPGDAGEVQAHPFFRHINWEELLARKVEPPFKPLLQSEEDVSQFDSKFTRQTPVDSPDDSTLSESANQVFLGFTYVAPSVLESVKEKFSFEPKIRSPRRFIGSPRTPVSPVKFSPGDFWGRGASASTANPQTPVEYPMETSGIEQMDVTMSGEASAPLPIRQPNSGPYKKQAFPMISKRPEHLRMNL
# test-settings: at 1 µM
endpoint: inhibition
Form entry: enter the amount, then its unit.

Provide inhibition value for the following compound: `COC(=O)c1ccc2c(c1)C(=Cc1cc(Br)c(O)c(Br)c1)C(=O)N2` 3.47%

Provide inhibition value for the following compound: `Cc1ccc2c(-c3ccnc(Nc4cccc(C(F)(F)F)c4)n3)c(-c3ccccc3)nn2n1` 2.71%

Provide inhibition value for the following compound: `Nc1ccc(C#Cc2cncnc2Nc2ccc(OCc3cccc(F)c3)c(Cl)c2)cc1` 0.85%

Provide inhibition value for the following compound: `Cc1ccc(NC(=O)CC2CC2)cc1-c1ccc(C(=O)NCC2CC2)cc1` 2.46%

Provide inhibition value for the following compound: `Nc1nccc(-c2c(-c3ccc(F)cc3)nn3cc(C(F)(F)F)ccc23)n1` -3%
